System: BJeLR
ASSAY_COMMENT: Modulatory profiling: Alamar Blue viability, lethal compound cotreated with death modulator (EC50, AUC)
Format: cell-based, human
Design: unit not given beside the values
CONDITION_SUMMARY: BJeLR cells; lethal compound cotreated with modulator Boc D; modulatory profile value (AUC)
MEASURED_PARAMETER: AUC, modulator BJ.Boc D
Answers are plain numbers.

Look over these answered cases.
>>> measured_number("Cc1cc(C)c2c(=O)n(CC(=O)NCCCN3CCN(c4ccccc4F)CC3)sc2n1 [CIL50]")
0.03113
>>> measured_number("CCCCNc1c(Cl)cnn(-c2ccccc2)c1=O [CIL36]")
"−0.0473"
>>> measured_number("O=c1c(Cl)c(Cl)cnn1-c1ccc(Cl)c(C(F)(F)F)c1 [CIL25]")
"−0.009758"

Quick request: AUC, modulator BJ.Boc D for each listed item, please.
1. COC(=O)c1[nH]c2ccc(Br)cc2c1NC(=O)CN1CCN(C2CCCCC2)CC1 [CIL71]
2. COc1ccc(-n2nnnc2S(=O)(=O)CC(=O)N2CCCCC2)cc1 [CIL48]
3. CC1CC(C)(C)Nc2ccc(OC(=O)c3ccco3)cc21 (stereo not shown) [CIL4]
4. C[S+]([O-])c1nc(-c2ccc(Br)cc2)cc(-c2ccccc2)c1C#N (stereo not shown) [CIL17]
5. CC(C(NNC(=O)c1ccc(C(F)(F)F)cc1)c1ccc(Br)cc1)[N+](=O)[O-] (stereo not shown) [CIL87]
6. OCCNCC(O)Cn1c2ccc(Br)cc2c2cc(Br)ccc21 (stereo not shown) [CIL7]

Data returned:
[0.0152, "−0.02225", "−0.01828", "−0.03116", "−0.0134", "−0.04946"]

Sure, the documented AUC, modulator BJ.Boc D for Nc1ccccc1NC(=O)c1ccc(CNC(=O)OCc2cccnc2)cc1 [MS275] is 0.08944

###

System: HT-1080
ASSAY_COMMENT: Modulatory profiling: Alamar Blue viability, lethal compound cotreated with death modulator (EC50, AUC)
Format: cell-based
CONDITION_SUMMARY: Homo sapiens, HT-1080, 48 h, HT-1080; cotreated with antioxidant BHT; 48 h
MEASURED_PARAMETER: pEC50
Answers are plain numbers, as −log10 of the molar value.

>>> measured_number("COC(=O)[C@@H]1Cc2c([nH]c3ccccc23)C(C)(C)N1C(=O)CCl [CIL79]")
5.20
>>> measured_number("O=C(CCl)N(c1ccc(Cl)cc1)c1c[nH]c2ccccc12 [CIL75]")
5.76
>>> measured_number("N/C(=N\\OC(=O)C12CC3CC(CC(C3)C1)C2)c1ccccc1 [CIL41]")
4.90
>>> measured_number("N/C(Cc1ccc(Cl)cc1)=N\\OC(=O)c1cccc2ccccc12 [CIL70]")
5.19
>>> measured_number("O=C(CCl)N(c1ccccc1)c1c[nH]c2ccccc12 [CIL69]")
5.48

Sure, the documented pEC50 for O=S(=O)(c1ccc2c(c1)C(=NO)c1cc(S(=O)(=O)N3CCCCC3)ccc1-2)N1CCCCC1 [CIL56] is 5.77

###

Test system: HT-1080
ASSAY_COMMENT: Modulatory profiling: Alamar Blue viability, lethal compound cotreated with death modulator (EC50, AUC)
Assay type: cell-based
Design: unit not given beside the values
CONDITION_SUMMARY: HT-1080, modulator ActD
Label 1 (yes) when AUC HT.ActD >= 0.01; otherwise 0 (no).

>>> label_class("O=C1c2c(O)ccc(O)c2C(=O)c2c(NCCNCCO)ccc(NCCNCCO)c21 [Mitoxantrone]")
"0 (no)"

Data request: AUC HT.ActD >= 0.01 for CCCS(=O)(=O)c1nnnn1-c1cccc(OC)c1 [CIL15] ?
Data returned: 1 (yes)

###

Tested on: BJeLR
ASSAY_COMMENT: Modulatory profiling: Alamar Blue viability, lethal compound cotreated with death modulator (EC50, AUC)
Format: cell-based, human
Parameters: unit not given beside the values
CONDITION_SUMMARY: BJeLR cells; lethal compound cotreated with modulator Boc D; modulatory profile value (AUC)
Mark Condition met only for AUC, modulator BJ.Boc D values smaller than -0.01; exact matches and larger values are Condition not met.

Data request: Please indicate whether the reported AUC, modulator BJ.Boc D of `COC(C)(C)C#CC(=O)c1cccc2ccccc12` is strictly below -0.01.
Data returned: Condition met

###

System: HT-1080
ASSAY_COMMENT: Modulatory profiling: Alamar Blue viability, lethal compound cotreated with death modulator (EC50, AUC)
Assay type: cell-based
CONDITION_SUMMARY: HT-1080, modulator Gd3+
MEASURED_PARAMETER: AUC HT.Gd3+
Answers are plain numbers.

Look over these answered cases.
>>> measured_number("O=c1c(Cl)c(Cl)cnn1-c1ccc(Cl)cc1 [CIL63]")
"−0.03164"
>>> measured_number("CCc1ccc(/C=C2/SC(=O)N(CCC(C)NCCCN3CCOCC3)C2=O)cc1 (centres unmarked) [CIL46]")
"−0.008617"
>>> measured_number("COc1cc2c(c(OC)c1OC)-c1ccc(OC)c(=O)cc1[C@@H](NC(C)=O)CC2 [Colchicine]")
0.01351
>>> measured_number("COc1ccc(Nc2ccc3c(c2)=NC2(CCCCC2)[N+]=3[O-])cc1 [CIL9]")
"−0.04358"

Sure, the documented AUC HT.Gd3+ for COc1ccc(C(=O)C(CN2CCCC2)c2ccccc2)cc1 (centres unmarked) [CIL72] is −9.532E−05

###

Tested on: BJeLR
ASSAY_COMMENT: Modulatory profiling: Alamar Blue viability, lethal compound cotreated with death modulator (EC50, AUC)
Format: cell-based, human
CONDITION_SUMMARY: Homo sapiens, BJeLR, 48 h; DMSO
Would you kindly list EC50 for each of these compounds?
Answers are plain numbers, in µM.

Look over these answered cases.
>>> measured_number("O=C(CCl)N(c1ccc(Cl)cc1)c1c[nH]c2ccccc12 [CIL75]")
0.0598
>>> measured_number("O=S(=O)(c1ccc2c(c1)C(=NO)c1cc(S(=O)(=O)N3CCCCC3)ccc1-2)N1CCCCC1 [CIL56]")
0.213
>>> measured_number("COC(=O)[C@@H]1Cc2c([nH]c3ccccc23)C(C)(C)N1C(=O)CCl [CIL79]")
0.157
>>> measured_number("N/C(=N\\OC(=O)C12CC3CC(CC(C3)C1)C2)c1ccccc1 [CIL41]")
3.17
>>> measured_number("N/C(Cc1ccc(Cl)cc1)=N\\OC(=O)c1cccc2ccccc12 [CIL70]")
1.76

Shifting focus to the compound that follows.
Sure, the documented EC50 for O=C(CCl)N(c1ccccc1)c1c[nH]c2ccccc12 [CIL69] is 0.193

###

System: BJeLR
ASSAY_COMMENT: Modulatory profiling: Alamar Blue viability, lethal compound cotreated with death modulator (EC50, AUC)
Assay type: cell-based, human
Design: unit not given beside the values
CONDITION_SUMMARY: BJeLR cells; lethal compound cotreated with modulator Co2+; modulatory profile value (AUC)
Label label 1 when AUC, modulator BJ.Co2+ >= -0.008; otherwise label 0.

>>> label_class("COc1ccc(Nc2ccc3c(c2)=NC2(CCCCC2)[N+]=3[O-])cc1 [CIL9]")
"label 0"
>>> label_class("CC(C)C1CC(CCNCc2ccc3c(c2)OCO3)(c2ccccc2)CCO1 (centres unmarked) [CIL51]")
"label 1"
>>> label_class("CC(C(NNC(=O)c1ccc(C(F)(F)F)cc1)c1ccc(Br)cc1)[N+](=O)[O-] (centres unmarked) [CIL87]")
"label 1"
>>> label_class("CS[C@H]1SC[C@H]2C(=O)N(C)[C@@H](C(C)C)C(=O)OC[C@@H](NC(=O)c3cnc4ccccc4n3)C(=O)N[C@@H](C)C(=O)N(C)[C@@H]1C(=O)N(C)[C@@H](C(C)C)C(=O)OC[C@@H](NC(=O)c1cnc3ccccc3n1)C(=O)N[C@@H](C)C(=O)N2C [Echinomycin]")
"label 1"

Data request: AUC, modulator BJ.Co2+ >= -0.008 for [O-][N+]1=c2ccc(Nc3ccccc3)cc2=NC12CCCCC2 [CIL66] ?
Data returned: label 0

Data request: AUC, modulator BJ.Co2+ >= -0.008 for COc1ccc(C(=O)C(CN2CCCC2)c2ccccc2)cc1 (centres unmarked) [CIL72] ?
Data returned: label 1

Data request: AUC, modulator BJ.Co2+ >= -0.008 for `O=[N+]([O-])c1ccc(O)c([N+](=O)[O-])c1` ?
Data returned: label 0

Data request: AUC, modulator BJ.Co2+ >= -0.008 for CCOc1ccccc1-n1c(C(C)N2CCN(C(=O)COc3ccc(Cl)cc3)CC2)nc2ccccc2c1=O (centres unmarked) [erastin, reference compound] ?
Data returned: label 0

###

Test system: HT-1080
ASSAY_COMMENT: Modulatory profiling: Alamar Blue viability, lethal compound cotreated with death modulator (EC50, AUC)
Type: cell-based
CONDITION_SUMMARY: HT-1080, modulator CspA
MEASURED_PARAMETER: AUC HT.CspA
Answers are plain numbers.

Look over these answered cases.
>>> measured_number("N/C(Cc1ccc(Cl)cc1)=N\\OC(=O)c1cccc2ccccc12 [CIL70]")
"−0.0468"
>>> measured_number("C/C(=N\\Nc1ncc(Cl)cc1Cl)c1ccccn1 [CIL64]")
0.08661
>>> measured_number("CC(C)[C@@H]1NC(=O)[C@H](C)OC(=O)[C@@H](C(C)C)NC(=O)[C@@H](C(C)C)OC(=O)[C@H](C(C)C)NC(=O)[C@H](C)OC(=O)[C@@H](C(C)C)NC(=O)[C@@H](C(C)C)OC(=O)[C@H](C(C)C)NC(=O)[C@H](C)OC(=O)[C@@H](C(C)C)NC(=O)[C@@H](C(C)C)OC1=O [Vatinomycin]")
"−0.03789"
>>> measured_number("Cc1cc(C)c2c(=O)n(CC(=O)NCCCN3CCN(c4ccccc4F)CC3)sc2n1 [CIL50]")
"−0.01271"
>>> measured_number("Cc1[nH]c2c(ccc3ccccc32)c1C1C(CCN)C1(C)C (stereo not shown) [CIL74]")
"−0.004622"

Quick request: AUC HT.CspA for each listed item, please.
1. COc1nn(-c2ccccc2)c(=O)c(Cl)c1Cl [CIL23]
2. C=C(C)[C@H]1Cc2c(ccc3c2O[C@@H]2COc4cc(OC)c(OC)cc4[C@@H]2C3=O)O1 [Rotenone]

Data returned:
1: −0.02326; 2: −0.1722

The reported numbers originate from patent US10947188B2.
